# Tested on: Eschericia coli (DSM 1116)
# assay.name: Antimicrobial microdilution assay (MIC)
# Assay type: cell-based, Escherichia coli
# study.conditions: microdilution in 96-well plates, seven 1:2 serial dilution steps, Mueller–Hinton bouillon, start OD600 0.01, 30 °C, 160 rpm overnight

| compound | system.name | MIC, Gram-Negative, Ec |
| --- | --- | --- |
| CCC(C)[C@H]1OC(=O)[C@H](C(C)C)NC(=O)[C@H](C)OC(=O)[C@@H](C(C)C)NC(=O)[C@@H](C(C)C)OC(=O)[C@H](C(C)C)NC(=O)[C@H](C)OC(=O)[C@@H](C(C)C)NC(=O)[C@@H](C(C)C)OC(=O)[C@H](C(C)C)NC(=O)[C@H](C)OC(=O)[C@@H](C(C)C)NC1=O (stereo partly drawn) [Streptodepsipeptide SV21 (4), Streptodepsipeptide SV21] | Eschericia coli (DSM 1116) | - |
| CC[C@H]1OC(=O)[C@H](C(C)C)NC(=O)[C@H](C)OC(=O)[C@@H](C(C)C)NC(=O)[C@@H](C(C)C)OC(=O)[C@H](C(C)C)NC(=O)[C@H](C)OC(=O)[C@@H](C(C)C)NC(=O)[C@@H](C(C)C)OC(=O)[C@H](C(C)C)NC(=O)[C@H](C)OC(=O)[C@@H](C(C)C)NC1=O [Streptodepsipeptide P11A (2), Streptodepsipeptide P11A] | Eschericia coli (DSM 1116) | - |
| CC(C)[C@@H]1NC(=O)[C@H](C)OC(=O)[C@@H](C(C)C)NC(=O)[C@@H](C(C)C)OC(=O)[C@H](C(C)C)NC(=O)[C@H](C)OC(=O)[C@@H](C(C)C)NC(=O)[C@@H](C(C)C)OC(=O)[C@H](C(C)C)NC(=O)[C@H](C)OC(=O)[C@@H](C(C)C)NC(=O)[C@H](C)OC1=O [Streptodepsipeptide P11B (1), Streptodepsipeptide P11B] | Eschericia coli (DSM 1116) | - |

----------
# Test system: Mucor hiemalis (DSM 2656)
# Type: cell-based
# study.conditions: Mucor hiemalis (DSM 2656); microdilution in 96-well plates, seven 1:2 serial dilution steps, MYC medium pH 7.0, start OD548 0.1, 30 °C, 160 rpm overnight
# MIC, Fungi, Mh per entry
Your answer should be a plain number; it is taken to be in mg/L.

| compound | MIC, Fungi, Mh / mg/L |
| --- | --- |
| CC(C)[C@@H]1NC(=O)[C@H](C)OC(=O)[C@@H](C(C)C)NC(=O)[C@@H](C(C)C)OC(=O)[C@H](C(C)C)NC(=O)[C@H](C)OC(=O)[C@@H](C(C)C)NC(=O)[C@@H](C(C)C)OC(=O)[C@H](C(C)C)NC(=O)[C@H](C)OC(=O)[C@@H](C(C)C)NC(=O)[C@@H](C(C)C)OC1=O | 2.1 |
| C[C@@H]1[C@H](O)[C@@H](C)/C=C/C=C/CC/C=C/C=C/C=C/C=C/C(O[C@H]2O[C@H](C)[C@@H](O)[C@H](N)[C@@H]2O)CC2O[C@](O)(CC(O)C(O)CCC(O)CC(O)CC(O)CC(=O)O[C@H]1C)CC(O)C2C(=O)O (some centres unmarked) [Nystatin, reference compound] | 16.6 |
| CC(C)[C@@H]1NC(=O)[C@H](C)OC(=O)[C@@H](C(C)C)NC(=O)[C@@H](C(C)C)OC(=O)[C@H](C(C)C)NC(=O)[C@H](C)OC(=O)[C@@H](C(C)C)NC(=O)[C@@H](C(C)C)OC(=O)[C@H](C(C)C)NC(=O)[C@H](C)OC(=O)[C@@H](C(C)C)NC(=O)[C@H](C)OC1=O [Streptodepsipeptide P11B (1), Streptodepsipeptide P11B] | 16.6 |

[in] Answer with the recorded MIC, Fungi, Mh for the compound listed here: CC[C@H]1OC(=O)[C@H](C(C)C)NC(=O)[C@H](C)OC(=O)[C@@H](C(C)C)NC(=O)[C@@H](C(C)C)OC(=O)[C@H](C(C)C)NC(=O)[C@H](C)OC(=O)[C@@H](C(C)C)NC(=O)[C@@H](C(C)C)OC(=O)[C@H](C(C)C)NC(=O)[C@H](C)OC(=O)[C@@H](C(C)C)NC1=O [Streptodepsipeptide P11A (2), Streptodepsipeptide P11A]
[out] 8.3

[in] Answer with the recorded MIC, Fungi, Mh for the compound listed here: CCC(C)[C@H]1OC(=O)[C@H](C(C)C)NC(=O)[C@H](C)OC(=O)[C@@H](C(C)C)NC(=O)[C@@H](C(C)C)OC(=O)[C@H](C(C)C)NC(=O)[C@H](C)OC(=O)[C@@H](C(C)C)NC(=O)[C@@H](C(C)C)OC(=O)[C@H](C(C)C)NC(=O)[C@H](C)OC(=O)[C@@H](C(C)C)NC1=O (some centres unmarked) [Streptodepsipeptide SV21 (4), Streptodepsipeptide SV21]
[out] 16.6

----------
# Tested on: Eschericia coli (DSM 1116)
# assay.name: Antimicrobial microdilution assay (MIC)
# Type: cell-based, Escherichia coli
# study.conditions: microdilution in 96-well plates, seven 1:2 serial dilution steps, Mueller–Hinton bouillon, start OD600 0.01, 30 °C, 160 rpm overnight
# From the text: The panel of test microorganisms consisted of the following multi drug-resistant (MDR) bacteria: Gram-negative Escherichia coli (DSM 1116) and Pseudomonas aeruginosa (PA16); Gram-positive Bacillus subtilis (DSM 10), Staphylococcus aureus (DSM 346), and Mycobacterium smegmatis (ATCC 7000048); yeasts Candida albicans (DSM 1665) and Rhodotorula glutinis (DSM 10134); and filamentous fungi Mucor hiemalis (DSM 2656). […]
value.type: MIC, Gram-Negative, Ec

| structure | result |
| --- | --- |
| CC(C)[C@@H]1NC(=O)[C@H](C)OC(=O)[C@@H](C(C)C)NC(=O)[C@@H](C(C)C)OC(=O)[C@H](C(C)C)NC(=O)[C@H](C)OC(=O)[C@@H](C(C)C)NC(=O)[C@@H](C(C)C)OC(=O)[C@H](C(C)C)NC(=O)[C@H](C)OC(=O)[C@@H](C(C)C)NC(=O)[C@@H](C(C)C)OC1=O | - |
